Tested on: Ileal sodium/bile acid cotransporter (hamster)
Experiment: Inhibition of ASBT as [3H]taurocholate uptake in hamster ileal ring at 30 ug/mL
Settings: Syrian hamster
REPORTED ENDPOINT: inhibition at 30 µg/mL (%)
Numbers only, in %.

[[record]]
mol_smiles = "CCN(C(=O)c1cn(-c2cc(OC)cc(OC)c2)c2cc(OCCCCCCCC[N+]34CCN(CC3)CC4)ccc2c1=O)c1cc(F)cc(F)c1"
tested_system = "Ileal sodium/bile acid cotransporter (hamster)"
unit_of_measurement = "%"
quantitative_readout = 94

[[record]]
mol_smiles = "CCN(C(=O)c1cn(-c2ccc(OC)cc2)c2cc(OC)ccc2c1=O)c1cc(F)cc(F)c1"
tested_system = "Ileal sodium/bile acid cotransporter (hamster)"
unit_of_measurement = "%"
quantitative_readout = 64

[[record]]
mol_smiles = "CCN(C(=O)c1cn(-c2cc(OC)cc(OC)c2)c2cc(OCCCC[N+]34CCN(CC3)CC4)ccc2c1=O)c1cc(F)cc(F)c1"
tested_system = "Ileal sodium/bile acid cotransporter (hamster)"
unit_of_measurement = "%"
quantitative_readout = 24

[[record]]
mol_smiles = "CCN(C(=O)c1cn(-c2cc(OC)cc(OC)c2)c2cc(OCCCCC[N+]34CCN(CC3)CC4)ccc2c1=O)c1cc(F)cc(F)c1"
tested_system = "Ileal sodium/bile acid cotransporter (hamster)"
unit_of_measurement = "%"
quantitative_readout = 67

[[record]]
mol_smiles = "CCN(C(=O)c1cn(-c2cc(OC)cc(OCCCCCC[N+]34CCN(CC3)CC4)c2)c2cc(OC)ccc2c1=O)c1cc(F)cc(F)c1"
tested_system = "Ileal sodium/bile acid cotransporter (hamster)"
unit_of_measurement = "%"
quantitative_readout = 83


Hello, I would appreciate it if you could give inhibition at 30 µg/mL for each entry below.
1. CCN(C(=O)c1cn(-c2cc(OC)cc(OC)c2)c2cc(OCCCCCCC[N+]34CCN(CC3)CC4)ccc2c1=O)c1cc(F)cc(F)c1.[Br-]
2. CCN(C(=O)c1cn(-c2cc(OC)cc(OC)c2)c2cc(OC)ccc2c1=O)c1cc(F)cc(F)c1
3. CCN(C(=O)c1cn(-c2cc(OC)cc(OCc3ccc(C[N+]45CCN(CC4)CC5)cc3)c2)c2cc(OC)ccc2c1=O)c1cc(F)cc(F)c1
4. CCN(C(=O)c1cn(-c2cc(OC)cc(OCCCCCCC[N+]34CCN(CC3)CC4)c2)c2cc(OC)ccc2c1=O)c1cc(F)cc(F)c1
5. CCN(C(=O)c1cn(-c2cc(OC)cc(OC)c2)c2cc(OCc3ccc(C[N+]45CCN(CC4)CC5)cc3)ccc2c1=O)c1cc(F)cc(F)c1
6. CCN(C(=O)c1cn(-c2ccc(OCc3ccc(C[N+]45CCN(CC4)CC5)cc3)cc2)c2cc(OC)ccc2c1=O)c1cc(F)cc(F)c1
7. CCN(C(=O)c1cn(-c2cc(OC)cc(OC)c2)c2cc(OCCCCCC[N+]34CCN(CC3)CC4)ccc2c1=O)c1cc(F)cc(F)c1
8. CCN(C(=O)c1cn(-c2cc(OC)cc(OCCCCCCCC[N+]34CCN(CC3)CC4)c2)c2cc(OC)ccc2c1=O)c1cc(F)cc(F)c1

1. 100
2. 64
3. 71
4. 86
5. 71
6. 41
7. 88
8. 83
